Exercise: state measured phosphorylation enrichment for each of the sequences provided.
subjectOfTest: Jak2 (UniProt O60674)
Sequence (O60674 whole entry, looked up): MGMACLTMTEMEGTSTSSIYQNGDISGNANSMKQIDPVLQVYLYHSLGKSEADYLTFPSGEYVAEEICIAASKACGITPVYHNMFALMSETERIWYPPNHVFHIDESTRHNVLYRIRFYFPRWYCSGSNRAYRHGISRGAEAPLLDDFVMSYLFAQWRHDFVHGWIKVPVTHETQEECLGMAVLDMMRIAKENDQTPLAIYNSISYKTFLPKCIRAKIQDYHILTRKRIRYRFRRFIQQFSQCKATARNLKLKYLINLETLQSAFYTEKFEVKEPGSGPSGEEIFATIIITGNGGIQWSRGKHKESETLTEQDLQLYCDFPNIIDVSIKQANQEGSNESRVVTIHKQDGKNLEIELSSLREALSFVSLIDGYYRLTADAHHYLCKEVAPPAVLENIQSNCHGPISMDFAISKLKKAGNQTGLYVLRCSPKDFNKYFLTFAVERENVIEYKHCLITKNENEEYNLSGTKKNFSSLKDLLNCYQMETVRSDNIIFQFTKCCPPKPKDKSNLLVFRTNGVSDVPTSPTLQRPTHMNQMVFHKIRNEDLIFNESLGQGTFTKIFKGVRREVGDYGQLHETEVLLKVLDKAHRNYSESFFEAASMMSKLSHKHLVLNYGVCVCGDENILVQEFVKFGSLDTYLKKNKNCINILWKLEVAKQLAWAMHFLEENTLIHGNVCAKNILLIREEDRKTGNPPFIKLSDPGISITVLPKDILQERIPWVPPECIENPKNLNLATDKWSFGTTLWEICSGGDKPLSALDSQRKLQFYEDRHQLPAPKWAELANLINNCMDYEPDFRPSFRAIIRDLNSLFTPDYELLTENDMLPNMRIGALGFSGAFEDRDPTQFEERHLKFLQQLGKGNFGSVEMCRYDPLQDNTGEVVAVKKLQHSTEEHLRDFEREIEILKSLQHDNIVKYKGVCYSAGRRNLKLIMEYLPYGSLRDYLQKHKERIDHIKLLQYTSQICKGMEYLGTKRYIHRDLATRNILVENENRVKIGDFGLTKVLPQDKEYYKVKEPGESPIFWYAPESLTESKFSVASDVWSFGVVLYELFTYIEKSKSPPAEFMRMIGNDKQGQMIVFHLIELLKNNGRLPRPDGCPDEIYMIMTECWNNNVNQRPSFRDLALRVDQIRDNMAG
experimentSummary: phosphorylation enrichment, bacterial display (enrichment ratio); higher = better substrate or ligand; peptides without Tyr show the background;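 also: 11-residue human phosphosite peptides and single-mutation variants displayed on the E. coli surface, counted by deep sequencing, each peptide's frequency after selection divided by its frequency in the unselected input library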;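 also: frequency after pTyr selection over input frequency; kinase dosed for 20-30% of maximal phosphorylation in three min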
Numbers only.

In [3]: df
Out[3]:
                     sequenceinput          subjectoftest                  observable  assayvalue
0  MARDIYQASFF [LTK_Y672_R673Q_YF]  Jak2 (UniProt O60674)  phosphorylation enrichment       0.992
1   KRELRYMHSRV [ABCD1_Y281_G277R]  Jak2 (UniProt O60674)  phosphorylation enrichment       0.525
2      LLANAYIFVVQ [L1CAM_Y418_YF]  Jak2 (UniProt O60674)  phosphorylation enrichment        1.79

Please examine the following record next.
Param readout = phosphorylation enrichment; param system = Jak2 (UniProt O60674); param query = KIEGIYARDET [RPL35A_Y34_V33I] ; response: value 0.663
